The measurements presented in this section are drawn from ChEMBL document CHEMBL3351747.

subjectOfTest: Proteasome subunit beta type-8 (Homo sapiens)
Sequence (P28062 whole entry): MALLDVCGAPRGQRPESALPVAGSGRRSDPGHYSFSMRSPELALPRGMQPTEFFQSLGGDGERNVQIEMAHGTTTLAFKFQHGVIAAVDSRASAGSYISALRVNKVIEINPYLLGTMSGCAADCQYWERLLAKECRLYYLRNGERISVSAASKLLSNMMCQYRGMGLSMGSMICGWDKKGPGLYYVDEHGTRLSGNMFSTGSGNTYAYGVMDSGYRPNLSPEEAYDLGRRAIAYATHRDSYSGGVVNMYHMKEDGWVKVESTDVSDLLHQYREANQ
experimentNotes: Inhibition of proteasome subunit beta-5i in human Raji cells using BODIPY-NC005 by fluorescent densitometry
Assay type: cell-based
So basically, if IC50 comes in under 7 nM it's 1, and if it's 7 nM or more it's 0.

stdin: # check: IC50 < 7 nM for CC1=C(C(=O)N[C@H](C)C(=O)N[C@@H](Cc2c[nH]c3ccccc23)C(=O)N[C@@H](CC2CCCCC2)C(=O)[C@@]2(C)CO2)Cc2ccccc21
stdout: 0

stdin: # check: IC50 < 7 nM for COc1ccc(C[C@H](NC(=O)[C@@H](C)NC(=O)C2=C(C)c3ccccc3C2)C(=O)N[C@@H](Cc2ccc(-c3ccccc3)cc2)C(=O)[C@@]2(C)CO2)cc1
stdout: 1

stdin: # check: IC50 < 7 nM for COc1ccc(C[C@H](NC(=O)[C@H](C)NC(=O)CN2CCOCC2)C(=O)N[C@@H](Cc2ccc(-c3ccccc3)cc2)C(=O)[C@@]2(C)CO2)cc1
stdout: 1

stdin: # check: IC50 < 7 nM for CC1=C(C(=O)N[C@H](C)C(=O)N[C@@H](Cc2c[nH]c3ccccc23)C(=O)N[C@@H](Cc2ccc(-c3ccccc3)cc2)C(=O)[C@@]2(C)CO2)Cc2ccccc21
stdout: 1

stdin: # check: IC50 < 7 nM for COc1ccc(C[C@H](NC(=O)[C@H](C)NC(=O)C2=C(C)c3ccccc3C2)C(=O)N[C@@H](Cc2ccc(-c3ccccc3)cc2)C(=O)[C@@]2(C)CO2)cc1
stdout: 1

stdin: # check: IC50 < 7 nM for CC1=C(C(=O)N[C@H](C)C(=O)N[C@@H](Cc2c[nH]c3ccccc23)C(=O)N[C@H](/C=C/S(C)(=O)=O)CC2CCCCC2)Cc2ccccc21
stdout: 0

stdin: # check: IC50 < 7 nM for COc1ccc(C[C@H](NC(=O)[C@H](C)NC(=O)CN2CCOCC2)C(=O)N[C@@H](CC23CC4CC(CC(C4)C2)C3)C(=O)[C@@]2(C)CO2)cc1
stdout: 0

stdin: # check: IC50 < 7 nM for COc1ccc(C[C@H](NC(=O)[C@H](C)NC(=O)CN2CCOCC2)C(=O)N[C@H](/C=C/S(C)(=O)=O)Cc2ccccc2)cc1
stdout: 0

***
stdin: # check: IC50 < 7 nM for COc1ccc(C[C@H](NC(=O)[C@H](C)NC(=O)CN2CCOCC2)C(=O)N[C@@H](CC2CCCCC2)C(=O)[C@@]2(C)CO2)cc1
stdout: 1

stdin: # check: IC50 < 7 nM for COc1ccc(C[C@H](NC(=O)[C@@H](C)NC(=O)CN2CCOCC2)C(=O)N[C@@H](Cc2ccc(-c3ccccc3)cc2)C(=O)[C@@]2(C)CO2)cc1
stdout: 1

stdin: # check: IC50 < 7 nM for COc1ccc(C[C@H](NC(=O)[C@@H](C)NC(=O)C2=C(C)c3ccccc3C2)C(=O)N[C@@H](CC2CCCCC2)C(=O)[C@@]2(C)CO2)cc1
stdout: 0
